Quick reference for IC50 among some compounds
target: 1-phosphatidylinositol 4,5-bisphosphate phosphodiesterase gamma-1 (Homo sapiens, UniProt P19174); test: Counterscreen for inhibitors of phospholipase C isozymes (PLC-B3): Fluorescence-based biochemical high throughput dose response assay to identify inhibitors of phospholipase C isozymes (PLC-gamma1).
Sequence (P19174 whole entry): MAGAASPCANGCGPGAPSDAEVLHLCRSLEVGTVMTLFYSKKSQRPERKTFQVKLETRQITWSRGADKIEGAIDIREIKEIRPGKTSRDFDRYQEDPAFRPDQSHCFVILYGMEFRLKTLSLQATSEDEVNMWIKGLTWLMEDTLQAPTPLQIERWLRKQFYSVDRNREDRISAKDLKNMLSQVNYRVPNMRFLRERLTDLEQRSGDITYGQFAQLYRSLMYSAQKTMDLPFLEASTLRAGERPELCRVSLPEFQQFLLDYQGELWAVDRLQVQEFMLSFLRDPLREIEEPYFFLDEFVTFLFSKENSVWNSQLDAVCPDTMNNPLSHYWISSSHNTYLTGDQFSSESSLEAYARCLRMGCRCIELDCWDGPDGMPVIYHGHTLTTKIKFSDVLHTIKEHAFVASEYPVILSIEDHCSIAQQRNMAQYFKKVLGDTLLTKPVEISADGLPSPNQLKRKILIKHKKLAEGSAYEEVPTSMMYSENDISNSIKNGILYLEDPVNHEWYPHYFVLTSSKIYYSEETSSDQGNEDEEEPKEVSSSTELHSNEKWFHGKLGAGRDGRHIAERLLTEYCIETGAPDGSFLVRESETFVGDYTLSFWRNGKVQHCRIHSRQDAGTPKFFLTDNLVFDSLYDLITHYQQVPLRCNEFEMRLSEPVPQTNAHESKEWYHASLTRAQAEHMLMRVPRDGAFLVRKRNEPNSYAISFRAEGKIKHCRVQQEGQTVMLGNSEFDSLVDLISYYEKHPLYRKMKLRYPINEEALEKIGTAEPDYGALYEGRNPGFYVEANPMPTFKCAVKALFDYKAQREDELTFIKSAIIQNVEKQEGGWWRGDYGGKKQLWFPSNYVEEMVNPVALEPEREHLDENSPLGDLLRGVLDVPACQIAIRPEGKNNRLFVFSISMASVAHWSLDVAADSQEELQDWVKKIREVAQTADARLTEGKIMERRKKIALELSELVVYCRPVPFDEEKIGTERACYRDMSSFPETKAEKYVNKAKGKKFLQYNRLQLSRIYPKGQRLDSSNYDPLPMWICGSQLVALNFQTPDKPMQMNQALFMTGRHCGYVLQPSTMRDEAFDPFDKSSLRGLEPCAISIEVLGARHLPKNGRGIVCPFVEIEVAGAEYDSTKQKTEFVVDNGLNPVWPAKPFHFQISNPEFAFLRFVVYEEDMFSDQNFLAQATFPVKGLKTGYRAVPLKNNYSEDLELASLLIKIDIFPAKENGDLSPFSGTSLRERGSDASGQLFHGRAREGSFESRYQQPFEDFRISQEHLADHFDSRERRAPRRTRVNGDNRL
Active and inactive are the calls of the source. No stated cut-off is given here; in the data, active = IC50 of 10 µM or less and inactive = more.

Past entries and their recorded results:
compound	val
O=C1NC(=S)S/C1=C\c1ccc(SCc2ccccc2)o1	> 122 µM (inactive)
C/N=C1/SC(CC(=O)NCCc2ccc(OC)c(OC)c2)C(=O)N1C (centres undefined)	> 122 µM (inactive)

-- ask Give the reported value of IC50 for this record: `O=C(CCN1C(=O)/C(=C\c2ccco2)SC1=S)Nc1ccc(C(=O)O)c(O)c1`
-- reply > 122 µM (inactive)

-- ask Give the reported value of IC50 for this record: `O=C(COC(=O)c1ccccc1C(=O)OCC(=O)NCCc1c[nH]c2ccccc12)NCCc1c[nH]c2ccccc12`
-- reply > 123 µM (inactive)
